Catalogue of %Inh values
# Test system: MINK;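 note: KINOMEscan kinase panel screen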
# Construct: gene MINK1
# Measurement parameters: concentration: 1 μM, replicates: in singlicate; n = 1
Outcome measure: %Inh (%)

[
  {
    "Compound": "Fc1cccc(COc2ccc(Nc3ncnc4sc(-c5ccc[nH]5)cc34)cc2Cl)c1 [GW707818]",
    "Measured": 16
  },
  {
    "Compound": "Fc1ccc(-c2ncn(CCCNCc3ccccc3)c2-c2ccncc2)cc1",
    "Measured": 3
  },
  {
    "Compound": "CCc1nc(-c2cccc(N(C)S(=O)(=O)c3ccccc3)c2)c(-c2ccnc(Nc3ccc(N4CCN(C(C)=O)CC4)nc3)n2)s1 [GSK1645895]",
    "Measured": 18
  },
  {
    "Compound": "C[C@H]1CC[C@@H](C(=O)Nc2ccccc2)CN1c1cc(-c2ccc3c(N)n[nH]c3c2)nc(N)n1 [GSK2283293]",
    "Measured": 17
  },
  {
    "Compound": "COC(=O)c1cccc(NC(=O)NCCNc2ccnc(Nc3ccc(F)cc3)n2)c1 [GSK1379883]",
    "Measured": 0
  },
  {
    "Compound": "COc1ccc(NC(=O)c2ccc(-c3cc(-c4nnc(C)o4)ccc3C)cc2)cc1 [GW595885]",
    "Measured": 0
  },
  {
    "Compound": "FC(F)(F)c1ccc(-c2nn3ncccc3c2-c2ccnc(Nc3cccc(C(F)(F)F)c3)n2)cc1 [GW828205]",
    "Measured": 12
  },
  {
    "Compound": "CC(C)N1CCC(n2cnc(-c3ccc(F)cc3)c2-c2ccnc(N)n2)CC1 [SB-223132]",
    "Measured": 7
  },
  {
    "Compound": "Clc1cccc(-c2nc(Nc3ccncc3)c3ccccc3n2)c1 [GW873004]",
    "Measured": 16
  },
  {
    "Compound": "O=C(Nc1n[nH]c2nc(-c3ccco3)c(Br)cc12)c1ccc(CN2CCCC2)cc1.O=C(O)[C@H](O)[C@@H](O)C(=O)O [SB-742352]",
    "Measured": 0
  },
  {
    "Compound": "CSc1ccc(NC2=C(c3ccccc3Cl)C(=O)NC2=O)cc1 [SB-342411]",
    "Measured": 2
  },
  {
    "Compound": "Nc1nc(-c2ccc3c(N)n[nH]c3c2)cc(N2CCCCC2)n1 [GSK2228768]",
    "Measured": 0
  },
  {
    "Compound": "CS(=O)(=O)CCNCc1ccc(-c2ccc3ncnc(Nc4ccc(OCc5ccccc5)c(Cl)c4)c3c2)o1.Cl [GW574783]",
    "Measured": 0
  },
  {
    "Compound": "CC(C)(C)c1ccc(-n2cnc3c(N)ncnc32)cc1 [SKF-97263]",
    "Measured": 14
  },
  {
    "Compound": "Cc1ccc(C)c(NC(=O)NCCNc2ccnc(Nc3ccc(F)cc3)n2)c1 [GSK1379878]",
    "Measured": 0
  },
  {
    "Compound": "O=C(Nc1ccccc1F)NC1CCN(c2ccnc(Nc3ccc(F)cc3)n2)C1 (stereo not drawn) [GSK1379722]",
    "Measured": 0
  },
  {
    "Compound": "C[C@@H]1CCN(C(=O)CO)C[C@@H]1N(C)c1ncnc2[nH]ccc12",
    "Measured": 0
  },
  {
    "Compound": "CN1CCC(n2cnc(-c3ccc(F)cc3)c2-c2ccnc(NC3CCNCC3)n2)CC1 [SB-229482]",
    "Measured": 0
  },
  {
    "Compound": "CS(=O)(=O)CCNCc1nc(-c2ccc3ncnc(Nc4ccc(OCc5cccc(F)c5)c(Cl)c4)c3c2)cs1.Cl [GW583340]",
    "Measured": 0
  },
  {
    "Compound": "Oc1ccc2ncnc(Nc3ccc(OCc4ccccc4)cc3)c2c1 [GI262866]",
    "Measured": 0
  },
  {
    "Compound": "Cl.c1ccc(Cn2ncc3cc(Nc4ncnc5ccccc45)ccc32)cc1 [GW273749]",
    "Measured": 0
  },
  {
    "Compound": "FC(F)(F)c1cc(Nc2nccc(-c3c(-c4ccc(Cl)cc4)nn4ncccc34)n2)ccc1Cl [GW829351]",
    "Measured": 0
  },
  {
    "Compound": "Cl.Cn1ccc(-c2cccc(Nc3ccnc4cc(-c5nccs5)ccc34)c2)n1 [GW525701]",
    "Measured": 54
  },
  {
    "Compound": "Cl.c1ccc(Cn2ccc3cc(Nc4ncnc5ccccc45)ccc32)cc1 [GW275568]",
    "Measured": 12
  },
  {
    "Compound": "CCCc1ccc(S(=O)(=O)NC2CCN(c3ccnc(Nc4ccc(OC)cc4)n3)C2)cc1 (stereo not drawn) [GSK1379737]",
    "Measured": 0
  },
  {
    "Compound": "CCn1c(-c2ccncc2)nc2cnccc21 [SB-735216]",
    "Measured": 19
  },
  {
    "Compound": "Nc1nc(-c2ccccn2)c(-c2ccnc3ccccc23)s1 [GW548057]",
    "Measured": 56
  },
  {
    "Compound": "Cc1cc(N2CCC(NS(=O)(=O)c3ccc(F)cc3)CC2)nc(Nc2cccc(C#N)c2)n1.O=C(O)C(F)(F)F [GSK1653537]",
    "Measured": 0
  },
  {
    "Compound": "CCC(CC)(CC)n1cnc2c(N)ncnc21 [SKF-97620]",
    "Measured": 15
  },
  {
    "Compound": "COc1ccc(Nc2nccc(N3CCC(NC(=O)Nc4ccc5c(c4)OCO5)C3)n2)cc1 (stereo not drawn) [GSK1379745]",
    "Measured": 3
  }
]
